System: SARS-CoV
Assay: Antiviral activity against SARS coronavirus
Assay type: functional, organism-based
Settings: Severe acute respiratory syndrome-related coronavirus
measured.metric: IC50 (µM)
# unit: µM | format: bare number

Below are worked cases with known answers.
- chemical.smiles: "CCOC(=O)/C=C/[C@H](C[C@@H]1CCNC1=O)NC(=O)[C@H](CC=C(C)C)CC(=O)[C@@H](NC(=O)c1cc(C)on1)C(C)C"
  measured.metric: "IC50"
  output.unit: "µM"
  recorded.value: 70
- chemical.smiles: "CCOC(=O)/C=C/[C@H](C[C@@H]1CCNC1=O)NC(=O)[C@@H](CC(=O)[C@@H](NC(=O)c1cc(C)on1)C(C)C)Cc1ccccc1"
  measured.metric: "IC50"
  output.unit: "µM"
  recorded.value: 45
- chemical.smiles: "CCOC(=O)/C=C/[C@H](C[C@@H]1CCNC1=O)NC(=O)[C@H](CC=C(C)C)CC(=O)[C@@H](NC(=O)[C@H](CO)NC(=O)OC(C)(C)C)C(C)C"
  measured.metric: "IC50"
  output.unit: "µM"
  recorded.value: 75
- chemical.smiles: "CCOC(=O)/C=C/[C@H](C[C@@H]1CCNC1=O)NC(=O)[C@H](Cc1ccccc1)NC(=O)[C@@H](NC(=O)[C@H](CO)NC(=O)OC(C)(C)C)C(C)C"
  measured.metric: "IC50"
  output.unit: "µM"
  recorded.value: 100

We now examine a further compound.
Asked: Quick check: IC50 on SARS-CoV, item CCOC(=O)/C=C/[C@H](C[C@@H]1CCNC1=O)NC(=O)[C@H](CC(C)C)NC(=O)[C@@H](NC(=O)[C@H](CO)NC(=O)OC(C)(C)C)C(C)C ?
Given back: 100

###

Molecular target: Replicase polyprotein 1ab (Severe acute respiratory syndrome-related coronavirus, UniProt P0C6X7)
Assay: Inhibition of SARS-CoV 3C-like protease by FRET based microplate assay
measured.metric: log10(IC50) (log10 of the value in µM)
// do not treat as linear: log10 of IC50, unit µM

Asked: Give the measured log10(IC50) of CCOC(=O)/C=C/[C@H](C[C@@H]1CCNC1=O)NC(=O)[C@H](CC=C(C)C)CC(=O)[C@@H](NC(=O)[C@H](CO)NC(=O)OC(C)(C)C)C(C)C .
Given back: 1.90

###

In what follows, each item is paired with its pIC50 for Replicase polyprotein 1ab (Severe acute respiratory syndrome-related coronavirus).
// field semantics: pIC50 = negative decimal log of concentration (mol/L)

Below are worked cases with known answers.
- chemical.smiles: "CCOC(=O)/C=C/[C@H](C[C@@H]1CCNC1=O)NC(=O)[C@H](Cc1ccccc1)NC(=O)[C@@H](NC(=O)[C@H](CO)NC(=O)OC(C)(C)C)C(C)C"
  system.under.test: "Replicase polyprotein 1ab (Severe acute respiratory syndrome-related coronavirus)"
  recorded.value: 4.82
- chemical.smiles: "CCOC(=O)/C=C/[C@H](C[C@@H]1CCNC1=O)NC(=O)[C@H](CC=C(C)C)CC(=O)[C@@H](NC(=O)c1cc(C)on1)C(C)C"
  system.under.test: "Replicase polyprotein 1ab (Severe acute respiratory syndrome-related coronavirus)"
  recorded.value: 3.10
- chemical.smiles: "CCOC(=O)/C=C/[C@H](C[C@@H]1CCNC1=O)NC(=O)[C@H](CC(C)C)NC(=O)[C@@H](NC(=O)c1cc(C)on1)C(C)C"
  system.under.test: "Replicase polyprotein 1ab (Severe acute respiratory syndrome-related coronavirus)"
  recorded.value: 3.70
- chemical.smiles: "CCOC(=O)/C=C/[C@H](C[C@@H]1CCNC1=O)NC(=O)[C@H](CC(C)C)NC(=O)[C@@H](NC(=O)[C@H](CO)NC(=O)OC(C)(C)C)C(C)C"
  system.under.test: "Replicase polyprotein 1ab (Severe acute respiratory syndrome-related coronavirus)"
  recorded.value: 5.00
- chemical.smiles: "CCOC(=O)/C=C/[C@H](C[C@@H]1CCNC1=O)NC(=O)[C@H](Cc1ccccc1)NC(=O)[C@@H](NC(=O)c1cc(C)on1)C(C)C"
  system.under.test: "Replicase polyprotein 1ab (Severe acute respiratory syndrome-related coronavirus)"
  recorded.value: 3.52

We now examine a further molecule.
Asked: Give the measured pIC50 of CCOC(=O)/C=C/[C@H](C[C@@H]1CCNC1=O)NC(=O)[C@@H](CC(=O)[C@@H](NC(=O)c1cc(C)on1)C(C)C)Cc1ccccc1 .
Given back: 3.06
